# ASSAY PROCEDURE: soluble fraction after stress (log2 fold change); higher = more stays soluble; pooled small domains, quantitative proteomics
# CONDITION: stress: pH 4
Recorded soluble fraction (log2), one value per entry.
PROPERTY: soluble fraction (log2)

{"SEQUENCE": "HMNIYFNIEDAVANAVVENGKMSAAIYEKNVDTGEVAKLAEVSMPVMGGNINITKTLLTKALISQLP", "MEASUREMENT QUALIFIER": "=", "NUMERIC VALUE": -0.713}
{"SEQUENCE": "HMGVSAGQVRGLIRNLIAGEDKSKPLSDLALERELEKREIRISRRTVAKYRAELGIPNSDQRRYLP", "MEASUREMENT QUALIFIER": "=", "NUMERIC VALUE": 0.0779}
{"SEQUENCE": "HMSGSGYAYVDKYGYSHVVKDYDTAKNYASDGNVYNYSGSHKGGYAYDADNYRVPLDLPGSKPYG", "MEASUREMENT QUALIFIER": "=", "NUMERIC VALUE": -0.183}
{"SEQUENCE": "HMKPFSLESYKAFVVKRLGLFPETSSAQMHDWLKEEYPDFPLITPRTVYNFVMKIRQDYGIAKV", "MEASUREMENT QUALIFIER": "=", "NUMERIC VALUE": -0.732}
{"SEQUENCE": "HMNVRAYKVSKESELTVEEKLEAVRGYGVADLLYVIREFEENPGKYEPEVIKLIVQQLTDKGIM", "MEASUREMENT QUALIFIER": "=", "NUMERIC VALUE": -0.94}
{"SEQUENCE": "HMGKKGPELSENEKSIFSILSKSGSMDLTTLKEASGLSNKQWDKGIKGLGKHGLTKVIKTEDALLVEVV", "MEASUREMENT QUALIFIER": "=", "NUMERIC VALUE": 0.0105}
{"SEQUENCE": "HMITNEDINIKKLLVVMKDTPLSANEIMDKLNIKSKETLRNMYLDPAIKKGLINLTIPDKPTSKNQKYYK", "MEASUREMENT QUALIFIER": "=", "NUMERIC VALUE": 0.22}
{"SEQUENCE": "HMTEDADIERRLTGILASAGWYRSLAVEVKEGIVYLDGATASGNHRDWAGSLAAKTEGVVAVVNRIEVQP", "MEASUREMENT QUALIFIER": "=", "NUMERIC VALUE": -0.285}
{"SEQUENCE": "HMGGVSTDKPLNWDADGTSKLTQEQIDYLRSTYDLSDMSKQDYYDLMADLTNMNAISIKDVISQYVK", "MEASUREMENT QUALIFIER": "=", "NUMERIC VALUE": -0.462}
{"SEQUENCE": "HMIPDGKWKEDPISDGQKNFINSLIEQAIDAGQDELGAEAKKYLASGEATKGNASAMIDKLKSAL", "MEASUREMENT QUALIFIER": "=", "NUMERIC VALUE": 0.398}
{"SEQUENCE": "HMSKEDDSLVVTFRRMLLEEVDLHELSRIDANQRRARLERVIAHLVSREGVILSASERNQLVRRVVDEAV", "MEASUREMENT QUALIFIER": "=", "NUMERIC VALUE": -0.801}
{"SEQUENCE": "HMYRSGGYTGAGKDDEEAGVVHRNEFVNTADAVRNPHVKRFLDVFNVAQKDGTIRMLNTSQILERARLDA", "MEASUREMENT QUALIFIER": "=", "NUMERIC VALUE": 0.0596}
{"SEQUENCE": "HMRKKIIAQTLEEIRKSKGYSQKQVAAFIKVKPTTYNTYESGRTEPPAEILVRLSYLYRTPVDTLVQRDR", "MEASUREMENT QUALIFIER": "=", "NUMERIC VALUE": 0.226}
{"SEQUENCE": "HMNFKNMIDSLSGILFKKDPSAAIIDIGGVRLKVFITVGSYEQLPAKGEQVEILTYLHVKEDILNLYG", "MEASUREMENT QUALIFIER": "=", "NUMERIC VALUE": -0.819}
{"SEQUENCE": "HMYSDERLQTFMELLPFFVEELSNKHVTRYNVWQNYREAYPNGYGRSQFFFHLGQNLEAKKK", "MEASUREMENT QUALIFIER": "=", "NUMERIC VALUE": -0.0353}
{"SEQUENCE": "HMSSSYTEMQLERFKELLNKETLLSSEKNELKNLISDFDKISEIVSPLVVGAYLQLKNEHIETINSLG", "MEASUREMENT QUALIFIER": "=", "NUMERIC VALUE": -0.846}
{"SEQUENCE": "HMNARSTSYSDFIARVDKDEVASVRLDGETVTYQAADGTTYTTVKPESDPIAERLIAKGIEVNVVRQ", "MEASUREMENT QUALIFIER": "=", "NUMERIC VALUE": -0.519}
{"SEQUENCE": "HMSAEVMLRRLIDENDPSSENARYILAVMLERKKILAPVDVKNEKKSKMLFYEHQKTGEAFIVRDP", "MEASUREMENT QUALIFIER": "=", "NUMERIC VALUE": -0.17}
{"SEQUENCE": "HMHMKTIEWDSLVLIMYKDMKYLKRINEGQSFHGKGGMLNYADLIGKTYGIRFGQYEIFEPSLEDIVMYG", "MEASUREMENT QUALIFIER": "=", "NUMERIC VALUE": -0.569}
{"SEQUENCE": "HMELEENTERVLNILIENDIISENDIAEKLEVKINGARKALYKLKEVGFVEYTKERDEEKKWWYIYFWKLN", "MEASUREMENT QUALIFIER": "=", "NUMERIC VALUE": -0.36}
{"SEQUENCE": "HMEDAFLQRLISIIEANLSNVDFNVKMLAEQLNMSQPTLYRKVKQRSELSVIDMIRSIRILSLIHISEPTR", "MEASUREMENT QUALIFIER": "=", "NUMERIC VALUE": -0.919}
{"SEQUENCE": "HMDRMMQPETWGRVYQWITDDPQVPDREEVLTLIKYHYGDFGKLMKLLHRLNEGKAWTYLSEHIFPRM", "MEASUREMENT QUALIFIER": "=", "NUMERIC VALUE": -0.698}
{"SEQUENCE": "HMQTGYHVRITASTLNVRRDHSASSAVATQVRRGEVYTIVDEYNNGGTLWGKLKSGAGWIALKYTQS", "MEASUREMENT QUALIFIER": "≥", "NUMERIC VALUE": 0.43}
{"SEQUENCE": "HMRTSIWTAIAHSLRSDIGSGVYGPDDKLPTESALAARFGVNRHTVRHAIKALTDEGLVLPRRGAGVFVTS", "MEASUREMENT QUALIFIER": "=", "NUMERIC VALUE": -0.207}
{"SEQUENCE": "HMARSVAEFVERGRSGGSLERPKLQRMLEYIQDRPVDFVIVHKIDRLARNRADDAAITKTIRGAGAYLVST", "MEASUREMENT QUALIFIER": "=", "NUMERIC VALUE": -0.103}
{"SEQUENCE": "HMVPEEEATKISVQNVGASDYNFTVKGVQANDPTLTLVRGKTYEFDVTSLGHPFWIKTQKVTGSSSQY", "MEASUREMENT QUALIFIER": "=", "NUMERIC VALUE": -0.139}
{"SEQUENCE": "HMENWMPNLVNQDKRLAINTLRELGFTEEAGNLVIREETSEDVTKDYVISTDPVAETDLADVEKVTLVVSS", "MEASUREMENT QUALIFIER": "=", "NUMERIC VALUE": -0.219}
{"SEQUENCE": "HMHMSKKLADSISALRKKNGLSQEQLAEKIGISRQTVSNWERGIATPDVETLNLISKLFDEDLSVMING", "MEASUREMENT QUALIFIER": "=", "NUMERIC VALUE": 0.043}
{"SEQUENCE": "HMIMGTITKRTNPSGAIVYRAQIRIKKAGYPDFSESRTFSKKAMAVEWLKLREAELEMHPELLFR", "MEASUREMENT QUALIFIER": "=", "NUMERIC VALUE": 0.0366}
{"SEQUENCE": "HMINLVPFELKFITAQVLDDIIKKIGINADTIILDINPKKIWVYAGEQELSDIQNIVKNVDVEDNI", "MEASUREMENT QUALIFIER": "=", "NUMERIC VALUE": -2.17}
{"SEQUENCE": "HMDTMINLIGLNLKKAKKELSNLGVNVKKVRYKKSSVYDEGVVIDQSIEAGRNIKNGDFITITVSSGKA", "MEASUREMENT QUALIFIER": "=", "NUMERIC VALUE": -0.0745}
{"SEQUENCE": "HMYSMSAPMPGVILEIKVAPGDQVNKGDVVMVLEAMKMKNDLHAARTGTVESIDINSGEQVKYGQVLLRFV", "MEASUREMENT QUALIFIER": "=", "NUMERIC VALUE": 0.0869}
{"SEQUENCE": "HMTQTAVFSKGEQEYYFPLSKVLFFETDGNTINVHTADDIYETRYRLYELEEMLPGSFMRISKSAVVNTNR", "MEASUREMENT QUALIFIER": "=", "NUMERIC VALUE": -0.161}
